Molecular target: AR (Homo sapiens, UniProt P10275, T878A)
Assay: Effects of compounds on AR expression in LNCaP cells (ELISA, DC50)
Format: cell-based
Design: Measurement of the Effects of Drugs on the Expression of AR in Cells by ELISA Method; endogenous in cells; host or cells: LNCaP
Conditions: 24 hours of drug treatment, AR by ELISA
Give measured DC50 for each item. Keep answers brief.
Quick reminder: number only, in nM, skip the unit.

### Prompt Given the compound CNC(=O)[C@@H]1C[C@@H](O)CN1C(=O)[C@@H](NC(=O)COCCCCOc1ccc(-c2ncc(N3C(=S)N(c4ccc(C#N)c(C(F)(F)F)c4F)C(=O)C3(C)C)cc2F)cc1F)C(C)(C)C [Compound A137] , write its reported DC50.
### Response 145

### Prompt Given the compound Cc1ncsc1-c1ccc(CNC(=O)[C@@H]2C[C@@H](O)CN2C(=O)[C@@H](NC(=O)COCCCCOc2ccc(-c3ncc(N4C(=S)N(c5ccc(C#N)c(C(F)(F)F)c5F)C(=O)C4(C)C)cc3F)c(F)c2)C(C)(C)C)cc1 [Compound A94] , write its reported DC50.
### Response 58.4

### Prompt Given the compound CC(=O)O[C@@H]1C[C@@H](C(=O)NCc2ccc(-c3scnc3C)cc2)N(C(=O)[C@@H](NC(=O)COCCCCOc2ccc(-c3ncc(N4C(=S)N(c5ccc(C#N)c(C(F)(F)F)c5F)C(=O)C4(C)C)cc3F)c(C(F)(F)F)c2)C(C)(C)C)C1 [Compound A146] , write its reported DC50.
### Response 259

### Prompt Given the compound CC(=O)O[C@@H]1C[C@@H](C(=O)NCc2ccc(-c3scnc3C)cc2)N(C(=O)[C@@H](NC(=O)COCCCCOc2c(F)cc(-c3ncc(N4C(=S)N(c5ccc(C#N)c(C(F)(F)F)c5F)C(=O)C4(C)C)cc3F)cc2F)C(C)(C)C)C1 [Compound A152] , write its reported DC50.
### Response 167

###

Give measured DC50 for each item. Keep answers brief.
Molecular target: AR (Homo sapiens, UniProt P10275, T878A)
Experiment: Effects of compounds on AR expression in LNCaP cells (ELISA, DC50)
Assay type: cell-based
Design: Measurement of the Effects of Drugs on the Expression of AR in Cells by ELISA Method; endogenous in cells; host or cells: LNCaP
Conditions: 24 hours of drug treatment, AR by ELISA
Method: Activity Assay Example 1: Effects of Compounds on AR Expression in LNCaP Cells 1. Cell Line and Cell Culture Human prostate cancer cells LNCaP (Shanghai Chinese Academy of Sciences Cell Bank). LNCaP was cultured in 1640 medium containing 10% fetal bovine serum. […] 4.6 The reaction wells were added with 100 ul/well of stop solution, mixed well and then the OD450 value was measured with a microplate reader. […]
Quick reminder: number only, in nM, skip the unit.

### Prompt Given the compound Cc1ncsc1-c1ccc(CNC(=O)[C@@H]2C[C@@H](O)CN2C(=O)[C@@H](NC(=O)CN2CCN(Cc3ccc(-c4ccc(N5C(=S)N(c6ccc(C#N)c(C(F)(F)F)c6F)C(=O)C5(C)C)cn4)cc3)CC2)C(C)(C)C)cc1 , write its reported DC50.
### Response 69.3

### Prompt Given the compound CNC(=O)c1ccc(-c2c[nH]c([C@@H]3C[C@@H](O)CN3C(=O)[C@@H](NC(=O)COCCCCOc3ccc(-c4ccc(N5C(=S)N(c6ccc(C#N)c(C(F)(F)F)c6F)C(=O)C5(C)C)cn4)cc3)C(C)(C)C)n2)cc1 , write its reported DC50.
### Response 26.1

###

Molecular target: AR (Homo sapiens, UniProt P10275, T878A)
Assay: Effects of compounds on AR expression in LNCaP cells (ELISA, DC50)
Format: cell-based
Design: Measurement of the Effects of Drugs on the Expression of AR in Cells by ELISA Method; endogenous in cells; host or cells: LNCaP
Conditions: 24 hours of drug treatment, AR by ELISA
value-kind: DC50 (nM)
Quick reminder: number only, in nM, skip the unit.

### Prompt Given the compound Cc1ncsc1-c1ccc(CNC(=O)[C@@H]2C[C@@H](O)CN2C(=O)[C@@H](NC(=O)COCCOCCCCOc2ccc(N3C(=S)N(c4ccc(C#N)c(C(F)(F)F)c4F)C(=O)C3(C)C)cn2)C(C)(C)C)cc1 [Compound A254] , write its reported DC50.
### Response 52.5

### Prompt Given the compound CC1(C)C(=O)N(c2ccc(C#N)c(C(F)(F)F)c2F)C(=S)N1c1ccc(C#CC2CCN(CCNC(=O)COc3cccc4c3C(=O)N(C3CCC(=O)NC3=O)C4=O)CC2)cc1 (stereo not shown) [Compound A27] , write its reported DC50.
### Response 34.8

### Prompt Given the compound Cc1ncsc1-c1ccc([C@H](CC(=O)NCCN2CCC(C#Cc3ccc(N4C(=S)N(c5ccc(C#N)c(C(F)(F)F)c5F)C(=O)C4(C)C)cc3)CC2)NC(=O)[C@@H]2C[C@@H](O)CN2C(=O)[C@@H](NC(=O)C2(F)CC2)C(C)(C)C)cc1 [Compound A139] , write its reported DC50.
### Response 225

### Prompt Given the compound CC(C)(C)[C@H](NC(=O)COCCCCOc1ccc(-c2ccc(N3C(=S)N(c4ccc(C#N)c(C(F)(F)F)c4F)C(=O)C3(C)C)cn2)cc1C(F)(F)F)C(=O)N1C[C@H](O)C[C@H]1C(=O)NCc1ccccc1 [Compound A122] , write its reported DC50.
### Response 155

###

Target: AR (Homo sapiens, UniProt P10275, T878A)
Test: Effects of compounds on AR expression in LNCaP cells (ELISA, DC50)
Assay type: cell-based
Design: Measurement of the Effects of Drugs on the Expression of AR in Cells by ELISA Method; endogenous in cells; host or cells: LNCaP
Conditions: 24 hours of drug treatment, AR by ELISA
Threshold 0.1 µM. DC50 below it: condition met. DC50 at it or above: condition not met.

### Prompt Identify whether the molecule Cc1ncsc1-c1ccc(CNC(=O)[C@@H]2C[C@@H](O)CN2C(=O)[C@@H](NC(=O)COCCCCNC(=O)/C=C/c2ccc(N3C(=S)N(c4ccc(C#N)c(C(F)(F)F)c4F)C(=O)C3(C)C)cn2)C(C)(C)C)cc1 records DC50 below 0.1 µM.
### Response condition not met

### Prompt Identify whether the molecule Cc1ncsc1-c1ccc(CNC(=O)[C@@H]2C[C@@H](O)CN2C(=O)[C@@H](NC(=O)CN2CCN(CCc3ccc(-c4ccc(N5C(=S)N(c6ccc(C#N)c(C(F)(F)F)c6F)C(=O)C5(C)C)cn4)cc3)CC2)C(C)(C)C)cc1 records DC50 below 0.1 µM.
### Response condition met

### Prompt Identify whether the molecule CC1(C)C(=O)N(c2ccc(C#N)c(C(F)(F)F)c2F)C(=S)N1c1ccc([C@@H]2C[C@H]2C(=O)NCCCCNC(=O)COc2cccc3c2C(=O)N(C2CCC(=O)NC2=O)C3=O)nc1 (some centres unmarked) records DC50 below 0.1 µM.
### Response condition not met

### Prompt Identify whether the molecule Cc1ncsc1-c1ccc(CNC(=O)[C@@H]2C[C@@H](O)CN2C(=O)[C@@H](NC(=O)COCCCCOc2c(F)cc(-c3ncc(N4C(=S)N(c5ccc(C#N)c(C(F)(F)F)c5F)C(=O)C4(C)C)cc3C(F)(F)F)cc2F)C(C)(C)C)cc1 records DC50 below 0.1 µM.
### Response condition not met

### Prompt Identify whether the molecule Cc1ncsc1-c1ccc([C@H](C)NC(=O)[C@@H]2C[C@@H](O)CN2C(=O)[C@@H](NC(=O)COCCCCCOc2ccc(-c3ncc(N4C(=S)N(c5ccc(C#N)c(C(F)(F)F)c5F)C(=O)C4(C)C)cc3F)cc2F)C(C)(C)C)cc1 records DC50 below 0.1 µM.
### Response condition not met

### Prompt Identify whether the molecule CC(C)(C)[C@H](NC(=O)COCCCCOc1ccc(-c2ccc(N3C(=S)N(c4ccc(C#N)c(C(F)(F)F)c4F)C(=O)C3(C)C)cn2)cn1)C(=O)N1C[C@H](O)C[C@H]1C(=O)NCc1ccc(C(N)=O)cc1 records DC50 below 0.1 µM.
### Response condition met

### Prompt Identify whether the molecule Cc1ncsc1-c1ccc([C@H](C)NC(=O)[C@@H]2C[C@@H](O)CN2C(=O)[C@@H](NC(=O)COCCCCOc2ccc(-c3ccc(N4C(=S)N(c5ccc(C#N)c(C(F)(F)F)c5F)C(=O)C4(C)C)cn3)cc2C(F)(F)F)C(C)(C)C)cc1 records DC50 below 0.1 µM.
### Response condition not met

###

Molecular target: AR (Homo sapiens, UniProt P10275, T878A)
Sequence (P10275 1-920 T878A): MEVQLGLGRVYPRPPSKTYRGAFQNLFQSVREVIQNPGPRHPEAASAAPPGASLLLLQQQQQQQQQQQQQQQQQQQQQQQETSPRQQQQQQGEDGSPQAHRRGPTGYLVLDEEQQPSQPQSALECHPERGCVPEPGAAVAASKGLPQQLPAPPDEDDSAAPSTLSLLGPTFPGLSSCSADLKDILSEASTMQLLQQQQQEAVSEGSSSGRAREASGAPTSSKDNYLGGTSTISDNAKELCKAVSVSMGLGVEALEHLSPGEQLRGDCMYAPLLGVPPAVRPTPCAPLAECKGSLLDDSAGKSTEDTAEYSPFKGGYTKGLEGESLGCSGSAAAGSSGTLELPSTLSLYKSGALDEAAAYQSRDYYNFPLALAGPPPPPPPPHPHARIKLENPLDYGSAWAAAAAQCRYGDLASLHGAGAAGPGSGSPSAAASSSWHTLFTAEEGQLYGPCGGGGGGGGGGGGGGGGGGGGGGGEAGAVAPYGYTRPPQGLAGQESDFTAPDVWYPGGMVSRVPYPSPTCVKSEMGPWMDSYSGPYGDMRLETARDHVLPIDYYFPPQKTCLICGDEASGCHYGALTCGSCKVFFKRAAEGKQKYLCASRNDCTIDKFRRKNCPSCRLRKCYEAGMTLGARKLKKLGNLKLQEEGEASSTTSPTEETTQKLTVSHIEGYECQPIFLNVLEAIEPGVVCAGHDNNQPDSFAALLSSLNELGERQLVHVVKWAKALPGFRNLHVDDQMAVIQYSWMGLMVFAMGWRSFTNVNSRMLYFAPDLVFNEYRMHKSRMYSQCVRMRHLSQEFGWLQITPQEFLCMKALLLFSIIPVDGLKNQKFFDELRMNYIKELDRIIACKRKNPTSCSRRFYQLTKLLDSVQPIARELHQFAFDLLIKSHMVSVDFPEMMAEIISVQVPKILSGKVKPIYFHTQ
Experiment: Effects of compounds on AR expression in LNCaP cells (ELISA, DC50)
Assay type: cell-based
Design: Measurement of the Effects of Drugs on the Expression of AR in Cells by ELISA Method; endogenous in cells; host or cells: LNCaP
Conditions: 24 hours of drug treatment, AR by ELISA
Give measured DC50 for each item. Keep answers brief.
Quick reminder: number only, in µM, skip the unit.

### Prompt Please report the measured DC50 for CC(C)(C)[C@H](NC(=O)COCCCCOc1ccc(-c2ccc(N3C(=S)N(c4ccc(C#N)c(C(F)(F)F)c4F)C(=O)C3(C)C)cn2)cn1)C(=O)N1C[C@H](O)C[C@H]1C(=O)NCc1ccccc1 [Compound A128] tested on AR (Homo sapiens, UniProt P10275, T878A).
### Response 0.124

### Prompt Please report the measured DC50 for Cc1ncsc1-c1ccc(CNC(=O)[C@@H]2C[C@@H](O)CN2C(=O)[C@@H](NC(=O)COCCCCOc2ccc(-c3ccc(N4C(=S)N(c5ccc(C#N)c(C(F)(F)F)c5F)C(=O)C4(C)C)cn3)cn2)C(C)(C)C)cc1 [Compound A100] tested on AR (Homo sapiens, UniProt P10275, T878A).
### Response 0.0189

### Prompt Please report the measured DC50 for Cc1ncsc1-c1ccc(CNC(=O)[C@@H]2C[C@@H](O)CN2C(=O)[C@@H](NC(=O)[C@H]2CC[C@H](CNC(=O)c3ccc(-c4ccc(N5C(=S)N(c6ccc(C#N)c(C(F)(F)F)c6F)C(=O)C5(C)C)cn4)cc3F)CC2)C(C)(C)C)cc1 [Compound A105] tested on AR (Homo sapiens, UniProt P10275, T878A).
### Response 0.188
